Study Target: HLA-B*51:01
Assay Overview: IEDB peptide-MHC binding, purified MHC/direct/fluorescence; filed as Kd, often an IC50 or EC50 that approximates it; bounds were set here for any values at or beyond the usual limits of such assays
Experimental Parameters: source organism: Escherichia coli O157:H7 str. EC869
pKd: −log10 of the molar value.
Reported Metric: pKd

[[record]]
sequence_string = "SQFNHWFGE"
val = "≤ 4.70"


====

Study Target: HLA-B*51:01
Assay Overview: IEDB peptide-MHC binding, purified MHC/competitive/radioactivity; filed as Kd, often an IC50 or EC50 that approximates it; bounds were set here for any values at or beyond the usual limits of such assays
Experimental Parameters: source organism: Dengue virus 2 Peru/IQT2913/1996
Documented Kd across a set of sequences
Reported Metric: Kd (µM)

[[record]]
sequence_string = "WPLSKMDIGV"
val = 2.67

[[record]]
sequence_string = "LPVWLAYKV"
val = 0.515

